Taken from the supplement of paper PMC10567573.

# MEASUREMENT_NOTES: protein stability index of a GFP-peptide fusion (GPS, HEK-293T) (PSI 1-6); higher = more stable;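 further: 24-mer peptide tiles fused after GFP, lentivirally expressed, FACS-sorted into six equal bins by GFP/DsRed ratio, decoded by Illumina sequencing, PSI is the read-weighted mean bin number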
# TEST_SETTINGS: treatment: MLN4924 1 uM, 8 h; c terminus: a fixed tail appended
Entries are grouped by protein stability index into these classes: lower level: < 3; middle level: ≥ 3 and < 5; upper level: ≥ 5

State the class of the sequence shown: TCSRVDYCLLSDHGCEYSCVNMDR [MATN2] lower level

Please classify: LHRGQLSLFCLEDKELLCCSCQAD [TRIM35] lower level

Please let me know in which category the item SSETPPPPPPPNEINPPPHTMEEE [EIF5] belongs. upper level

Category lookup for the sequence FIIFGTMEEMQNKAVVFFVFYLWS [HACD3] lower level

Which protein stability index category applies to RDGLAEDLAALKQRLEEETRKRED [PRPH] here? upper level

Into which bin does this sequence go? LKDHFSHLLGIPHSVLQIRYSGKI [IQUB] lower level

Which class holds LETHFRDVSSTEEFLELSPQKLKE [GAN] ? upper level

For LECVKFASHCLMNHPDLAKDLTEY [PDS5B] , which protein stability index bin applies? lower level

Into which bin does this sequence go? LKLLNHPNVIEYYENFLEDKALMI [NEK8] lower level

Each sequence maps to one class by protein stability index. Which class for LQSEPHRAGVQWKFAGSFYFAITV [KCNK9] ? lower level

Exam item: assign KKKKDKEKEKEKHKVKAEEEKKAK [BRD3] to the correct category. upper level

Note: place this sequence into its band. Item: AMQASKATKITLSAIYKWITDNFC [FOXJ1] lower level

Hey, which category is PDTQLLKFQLNKYTGEIKISENLD [PCDHGA10] in, do you know? middle level

Using the reported protein stability index, which band applies to SRVAGFNPALQLILTRTDKTLNKK [TOR1AIP2] ? middle level

Sort EFCEPAFVVGNCLQIASDSHQYDR [PCMTD1] into one of the categories. middle level

Could you place FSRVVHLYRNGKDQDGDQAPEYRG [MOG] in its proper category? Many thanks. middle level

Kindly identify the class of PGPGDDLCSDLEEAPEAELSQAPA [HES6] . upper level

Lab log: GRVSKQASQPVKKQQENATSCSLE [WDR41] — assign protein stability index category upper level

Category of FTTFFIDCMAALGLAYDRKKVSKA [SCD] , please. lower level

Which category does the recorded protein stability index put DNPFGIYQKILAGKIDFPRHLDFH [PRKX] in? lower level

Please let me know in which category the item LKKHGPICQKTATKKRKTFDSSRQ [ZC2HC1A] belongs. middle level
